hERG current change (%, negative = inhibition) at 10uM overview
- Experimental Target: human ether-à-go-go-related gene (hERG) potassium channel (human, UniProt Q12809);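 also: peak tail current of the secondary pulse compared with the same well before compound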
- Sequence (Q12809 whole entry, looked up): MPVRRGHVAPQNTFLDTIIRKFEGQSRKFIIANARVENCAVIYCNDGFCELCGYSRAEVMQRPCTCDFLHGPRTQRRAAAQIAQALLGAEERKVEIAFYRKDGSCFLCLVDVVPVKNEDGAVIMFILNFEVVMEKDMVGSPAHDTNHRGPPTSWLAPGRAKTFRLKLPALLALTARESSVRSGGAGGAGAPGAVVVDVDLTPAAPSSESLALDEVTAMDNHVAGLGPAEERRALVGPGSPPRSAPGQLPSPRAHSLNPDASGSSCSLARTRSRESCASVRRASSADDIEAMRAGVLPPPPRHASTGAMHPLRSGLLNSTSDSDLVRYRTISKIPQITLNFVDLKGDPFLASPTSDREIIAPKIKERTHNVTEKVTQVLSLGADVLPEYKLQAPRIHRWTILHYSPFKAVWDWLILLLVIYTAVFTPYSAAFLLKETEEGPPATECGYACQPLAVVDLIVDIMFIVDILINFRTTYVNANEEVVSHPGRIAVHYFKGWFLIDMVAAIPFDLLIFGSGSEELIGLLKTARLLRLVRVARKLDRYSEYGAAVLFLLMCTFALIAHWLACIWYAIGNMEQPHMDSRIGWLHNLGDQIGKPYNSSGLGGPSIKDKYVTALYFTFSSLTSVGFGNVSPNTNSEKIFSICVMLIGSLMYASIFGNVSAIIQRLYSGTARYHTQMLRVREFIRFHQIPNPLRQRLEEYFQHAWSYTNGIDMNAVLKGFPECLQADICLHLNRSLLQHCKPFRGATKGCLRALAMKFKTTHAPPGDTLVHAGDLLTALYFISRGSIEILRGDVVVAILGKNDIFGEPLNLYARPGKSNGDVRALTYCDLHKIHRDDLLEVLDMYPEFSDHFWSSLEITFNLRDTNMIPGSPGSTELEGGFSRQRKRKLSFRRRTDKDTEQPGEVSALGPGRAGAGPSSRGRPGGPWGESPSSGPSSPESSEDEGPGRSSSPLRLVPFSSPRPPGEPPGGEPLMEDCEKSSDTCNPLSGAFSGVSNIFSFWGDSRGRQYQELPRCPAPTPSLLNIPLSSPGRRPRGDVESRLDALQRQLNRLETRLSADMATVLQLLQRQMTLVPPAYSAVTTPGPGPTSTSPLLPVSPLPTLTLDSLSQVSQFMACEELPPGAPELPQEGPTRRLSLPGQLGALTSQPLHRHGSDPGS
- Protocol Description: primary screen, population patch clamp on CHO cells stably expressing hERG; higher = less effect of the substance
In all, about 310,000 compounds went through this assay and about 14,000 (4.5%) showed an effect of 50% or more. The effect is printed as a negative number. What follows is part of a selection rich in strong results, with near analogues and random picks from the rest.
# number only, unit % dropped from output

Previously resolved entries follow.
Compound	Observed Measurement
C/C(=N\NC(=O)CN1CCN(S(=O)(=O)c2ccc(C)cc2)CC1)c1cccnc1	-46.9
O=C(c1ccncc1)N1c2ccccc2Sc2ccccc21	18.2
O=C(COC(=O)C1CCN(S(=O)(=O)c2cccs2)CC1)c1ccccc1	20.6

Query: hERG current change (%, negative = inhibition) at 10uM; subject: CCN(CCCNC(=O)C1CCN(S(=O)(=O)CC)CC1)c1cccc(C)c1
-40.4

----------
- Experimental Target: human ether-à-go-go-related gene (hERG) potassium channel (human);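 also: peak tail current of the secondary pulse compared with the same well before compound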
- Protocol Description: primary screen, population patch clamp on CHO cells stably expressing hERG; higher = less effect of the substance
Screen size: about 310,000 compounds; about 14,000 (4.5%) showed an effect of 50% or more. The effect is printed as a negative number. This is one part of a sample in which strong results are shown more often than they occur.
hERG current change (%, negative = inhibition) at 10uM overview
# number only, unit % dropped from output

Previously resolved entries follow.
Compound	Experimental Target	Units Label	Observed Measurement
CC(C)CCNC(=O)C12CN(Cc3ccccc3)CC1C(c1ccc([N+](=O)[O-])cc1)=NO2 (stereo not shown)	human ether-à-go-go-related gene (hERG) potassium channel (human)	%	-53.1
Cc1ccc2c(CN3CCN(S(=O)(=O)/C=C/c4ccccc4)CC3)cc(=O)oc2c1	human ether-à-go-go-related gene (hERG) potassium channel (human)	%	-72.4
O=S(=O)(/C=C/c1ccccc1)N1CCN(Cc2ccccc2)CC1	human ether-à-go-go-related gene (hERG) potassium channel (human)	%	-25.3

Query: hERG current change (%, negative = inhibition) at 10uM; subject: COc1ccc(C(=O)Nc2c(N)nc(SCC(=O)N3CCCCCC3)[nH]c2=O)cc1OC
0.918

For O=C(Cc1c[nH]c2ccccc12)Nc1nccs1 then?
0.956

----------
- Experimental Target: human ether-à-go-go-related gene (hERG) potassium channel (human);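 also: peak tail current of the secondary pulse compared with the same well before compound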
- Protocol Description: primary screen, population patch clamp on CHO cells stably expressing hERG; higher = less effect of the substance
- Method: Briefly, Chinese hamster ovary (CHO) cells stably expressing the hERG channel were dislodged from tissue culture flasks and dispensed into PPC plates. […] During the recording, background leak currents were estimated by a 100 ms step to -80 mV from an initial holding potential of -70 mV and subtracted from the subsequent current measurement. The campaign was conducted in two phases using slight differences in recording protocol. […]
Hit rate of the full screen: of about 310,000 compounds, about 14,000 (4.5%) showed an effect of 50% or more. Effects have a minus sign here. The entries come from a sample that favours strong results as a whole.
hERG current change (%, negative = inhibition) at 10uM overview
# number only, unit % dropped from output

Previously resolved entries follow.
Compound	Units Label	Observed Measurement
O=C(Nc1cnn(Cc2ccccc2)c1)c1nc2ncccn2n1	%	6.14
CCNc1nc(Oc2ccc(=O)[nH]n2)nc(SC)n1	%	8.57
Cc1cccc(NC(=O)N(Cc2cc3cc(C)ccc3[nH]c2=O)CC2COCCO2)c1 (stereo not shown)	%	6.43
C=CCNC(=O)/C(C#N)=C/c1c(C)nn(-c2ccccc2)c1Cl	%	-20
Cc1ccc2[nH]c(=O)c(CN(CCCN(C)C)C(=O)Nc3ccc(Cl)cc3)cc2c1	%	-66.1

Query: hERG current change (%, negative = inhibition) at 10uM; subject: CCN(CC)C(=O)CC(c1ccc(OC)cc1)c1c(O)cc(OC)cc1OC (stereo not shown)
-1.57

For CCN(CC)CCC(c1ccc(N(C)C)cc1)c1c(O)cc(OC)cc1OC (stereo not shown) then?
-0.431

For CC(=O)N(CCc1cccc(C)c1)Cc1cc2cc(C)ccc2[nH]c1=O then?
-5.71

For CCOc1ccc(NC(=S)NC(=O)/C=C/c2ccc(OC)cc2)c([N+](=O)[O-])c1 then?
7.26

For CCNc1nc(SCC(=O)Nc2ccc(Cl)c(Cl)c2)nc(N(C)C)n1 then?
14.8

For COC(=O)c1ccc2c(c1)C(C)(C)C(/C=C/c1ccc(O)cc1)=[N+]2C.[I-] then?
-70.9

For Cc1cc(C)n2nc(SCc3ccc(F)cc3Cl)nc2n1 then?
-4.5

For O=C(NCCc1ccccc1)C1CCN(C2CCN(Cc3ccco3)CC2)CC1 then?
-62.7

For CN(/N=C/c1ccccc1O)C(=S)c1ccccc1 then?
-3.8

For Cc1ccccc1CN1CCC(N2CCC(C(=O)NCC3CCCO3)CC2)CC1 (stereo not shown) then?
-1.07

Taken from paper PMC4336329.
